Recorded values, source paper PMC9022596.

system: Staphylococcus aureus PB1802; construct: PB1802; test: microbe, parasite or virus in culture; set-up: species or system Staphylococcus aureus clinical blood isolates and ATCC 29213; Broth microdilution MIC in cation-adjusted Mueller-Hinton broth with 50 ug/mL CaCl2, EUCAST reading, 37 C; details: PB1802, 16 h, replicate MIC, MHB + 50 ug/mL CaCl2
readoutKind: MIC (µg/mL)

smi: CN[C@H](CC(C)C)C(=O)N[C@H]1C(=O)N[C@@H](CC(N)=O)C(=O)N[C@H]2C(=O)N[C@H]3C(=O)N[C@H](C(=O)N[C@H](C(=O)O)c4cc(O)cc(O)c4-c4cc3ccc4O)[C@H](O)c3ccc(c(Cl)c3)Oc3cc2cc(c3O[C@@H]2O[C@H](CO)[C@@H](O)[C@H](O)[C@H]2O[C@H]2C[C@](C)(N)[C@H](O)[C@H](C)O2)Oc2ccc(cc2Cl)[C@H]1O
endpointUnit: µg/mL
measuredResult: 2
//
smi: CCO/N=C(\C(=O)N[C@@H]1C(=O)N2C(C(=O)[O-])=C(Sc3nc(-c4cc[n+](C)cc4)cs3)CS[C@H]12)c1nsc(N)n1
endpointUnit: µg/mL
measuredResult: 0.5
//
smi: CCCCCCCCCC(=O)N[C@@H](Cc1c[nH]c2ccccc12)C(=O)N[C@H](CC(N)=O)C(=O)N[C@@H](CC(=O)O)C(=O)N[C@@H]1C(=O)NCC(=O)N[C@@H](CCCN)C(=O)N[C@@H](CC(=O)O)C(=O)N[C@H](C)C(=O)N[C@@H](CC(=O)O)C(=O)NCC(=O)N[C@H](CO)C(=O)N[C@@H]([C@H](C)CC(=O)O)C(=O)N[C@@H](CC(=O)c2ccccc2N)C(=O)O[C@@H]1C
endpointUnit: µg/mL
measuredResult: 2
//
smi: CC(=O)NC[C@H]1CN(c2ccc(N3CCOCC3)c(F)c2)C(=O)O1
endpointUnit: µg/mL
measuredResult: 4

----------
test system: Staphylococcus aureus PB1406; construct: PB1406; experiment: microbe, parasite or virus in culture; parameters: species or system Staphylococcus aureus clinical blood isolates and ATCC 29213; Broth microdilution MIC in cation-adjusted Mueller-Hinton broth with 50 ug/mL CaCl2, EUCAST reading, 37 C; details: PB1406, 16 h, replicate MIC, MHB + 50 ug/mL CaCl2
Here, each record is paired with measured MIC data.

smi: CN[C@H](CC(C)C)C(=O)N[C@H]1C(=O)N[C@@H](CC(N)=O)C(=O)N[C@H]2C(=O)N[C@H]3C(=O)N[C@H](C(=O)N[C@H](C(=O)O)c4cc(O)cc(O)c4-c4cc3ccc4O)[C@H](O)c3ccc(c(Cl)c3)Oc3cc2cc(c3O[C@@H]2O[C@H](CO)[C@@H](O)[C@H](O)[C@H]2O[C@H]2C[C@](C)(N)[C@H](O)[C@H](C)O2)Oc2ccc(cc2Cl)[C@H]1O
MIC, µg/mL: 2
//
smi: CCO/N=C(\C(=O)N[C@@H]1C(=O)N2C(C(=O)[O-])=C(Sc3nc(-c4cc[n+](C)cc4)cs3)CS[C@H]12)c1nsc(N)n1
MIC, µg/mL: 0.25
//
smi: CCCCCCCCCC(=O)N[C@@H](Cc1c[nH]c2ccccc12)C(=O)N[C@H](CC(N)=O)C(=O)N[C@@H](CC(=O)O)C(=O)N[C@@H]1C(=O)NCC(=O)N[C@@H](CCCN)C(=O)N[C@@H](CC(=O)O)C(=O)N[C@H](C)C(=O)N[C@@H](CC(=O)O)C(=O)NCC(=O)N[C@H](CO)C(=O)N[C@@H]([C@H](C)CC(=O)O)C(=O)N[C@@H](CC(=O)c2ccccc2N)C(=O)O[C@@H]1C
MIC, µg/mL: 1
//
smi: CC(=O)NC[C@H]1CN(c2ccc(N3CCOCC3)c(F)c2)C(=O)O1
MIC, µg/mL: 4
